# Target system: LAP2, Q96RT1
# Sequence (Q96RT1 other isoform, or with tags, fused parts or gaps): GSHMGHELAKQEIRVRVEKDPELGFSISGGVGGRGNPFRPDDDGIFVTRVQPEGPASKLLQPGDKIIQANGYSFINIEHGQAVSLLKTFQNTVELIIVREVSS
# Experiment summary: holdup assay
# Design: key: below the threshold = too weak to quantify, mostly under pKd 3.1 to 4
# Particulars: plain residues with an end cap or a label only (N-terminal biotin on a linker: ado-ado)
Parameter: pKd

Examples from the recorded data:
KSGKQTMLVV [TRIM29, Q14134;Q14134-2] :: below the threshold
FNSYSLTGYV [CLDN2, P57739] :: below the threshold
SKENVQETQI [LRRC4B, Q9NT99] :: 3.69
DDEDRLVIEI [ZNF831, Q5JPB2] :: below the threshold
TKGPRGPTRV [SAPCD1, Q5SSQ6] :: 3.72

DTTVPESEDL [MYOZ2, Q9NPC6] yielded pKd of below the threshold

QKNRKAQEDL [CES3, Q6UWW8] yielded pKd of below the threshold

TACCHSETVV [TGFA, P01135] yielded pKd of 4.05
